Source listed as patent US11318118B1.

system: non-infected Vero E6 cells; conditions: read-out: EC 50 in non-infected Vero E6 cells; cell viability, Cell Titer Glo
pEC50: −log10 of the molar value.
PARAMETER: pEC50

SMILES_RECORD | PARAMETER | EXPERIMENTAL_RESULT
NC(=O)c1nnn(Cc2cc(Cl)c(C(=O)c3ccc(Cl)cc3)c(Cl)c2)c1N.O=C(O)c1cc(=O)[nH]c(=O)[nH]1 | pEC50 | 4.83
